biological target: A2A-adenosine receptor human recombinant (Homo sapiens); construct: expressed in transfected cells; test: Radioligand binding assay 1, human recombinant A2A adenosine receptor; conditions: human recombinant, [3H]MSX-2; read-out: A2A-adenosine receptor human recombinant [3H] MSX-2 Ki
Sequence (P29274 whole entry): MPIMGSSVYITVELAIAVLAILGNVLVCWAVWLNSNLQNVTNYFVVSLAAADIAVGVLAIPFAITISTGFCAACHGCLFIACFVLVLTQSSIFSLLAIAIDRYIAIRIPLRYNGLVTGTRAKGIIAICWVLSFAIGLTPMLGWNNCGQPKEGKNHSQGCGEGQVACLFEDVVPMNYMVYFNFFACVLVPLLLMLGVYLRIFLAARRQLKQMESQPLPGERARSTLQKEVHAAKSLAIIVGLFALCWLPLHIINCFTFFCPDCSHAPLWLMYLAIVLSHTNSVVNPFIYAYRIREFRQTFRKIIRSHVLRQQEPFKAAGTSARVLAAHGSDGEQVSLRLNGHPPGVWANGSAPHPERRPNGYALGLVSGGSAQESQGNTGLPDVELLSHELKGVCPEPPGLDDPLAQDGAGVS
Experimental Readout: Ki (µM)

Solved cases below.
> print(dat)
                                   compound  recorded.value
1  C#CCn1c(=O)c2c(nc(C#Cc3ccc(OC)c(OC)c3)n2C)n(CCF)c1=O [drawing 587]          0.0308
2  C#CCn1c(=O)c2c(nc(C#Cc3ccc(OC)c(OC)c3)n2C)n(Cc2ccco2)c1=O [drawing 579]          0.0139
3  C#CCn1c(=O)c2c(nc(C#Cc3cccc(OCCCN(C)C)c3)n2C)n(C)c1=O [drawing 558]          0.0116

(a) C#CCn1c(=O)c2c(nc(C#Cc3ccc4c(c3)OCO4)n2C)n(C)c1=O [drawing 561]
(b) C#CCn1c(=O)c2c(nc(C#Cc3ccc(OC)c(OC)c3)n2C)n(C(C)C)c1=O [drawing 586]
(c) C#CCn1c(=O)c2c(nc(C#Cc3ccc(OC)c(OC)c3)n2C)n(CC#N)c1=O [drawing 576]
Prompt: Number of compounds to sort: 3. Sort criterion: Ki, ascending. Dear reader, please state the labels in the requested order.
Completion: c, a, b

====

Entries and their measured Ki follow.
Molecular target: Rat A1 AR (Rattus norvegicus)
Sequence (P25099 1-326): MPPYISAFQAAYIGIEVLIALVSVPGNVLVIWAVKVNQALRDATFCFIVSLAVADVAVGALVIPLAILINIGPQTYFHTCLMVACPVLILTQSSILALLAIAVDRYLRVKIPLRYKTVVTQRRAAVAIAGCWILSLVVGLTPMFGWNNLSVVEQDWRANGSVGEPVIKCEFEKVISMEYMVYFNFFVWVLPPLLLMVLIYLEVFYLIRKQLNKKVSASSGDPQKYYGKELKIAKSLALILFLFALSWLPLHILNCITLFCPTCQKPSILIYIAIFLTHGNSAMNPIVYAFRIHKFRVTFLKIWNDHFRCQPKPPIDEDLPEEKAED

Solved cases below.
> print(dat)
                                   molecule  recorded.value
1  C#CCn1c(=O)c2c(nc(C#Cc3ccc(OC)c(OC)c3)n2C)n(CC(=C)C)c1=O          > 1 µM
2  C#CCn1c(=O)c2c(nc(C#Cc3ccc(F)c(OC)c3)n2C)n(CC)c1=O [drawing 519]          > 1 µM

Prompt: GET /values?readout=Ki&item= C#CCn1c(=O)c2c(nc(C#Cc3cccc(OC)c3)n2CC#C)n(C)c1=O [drawing 467]
Completion: ≥ 10 µM

====

molecular target: Adenosine A1 (Homo sapiens); assay: Functional assay (luciferase reporter), inhibition of A1 adenosine receptor; assay type: cell-based; set-up: expressed in transfected cells; host or cells: CHO-DUKX-SRE-Luci-A1-44 (CHO-DUKX, vector pCineo); conditions: CHO-DUKX-SRE-Luci-A1-44 cells, 3.5 μM ADAC; read-out: A1 AR IC50
Sequence (P30542 whole entry): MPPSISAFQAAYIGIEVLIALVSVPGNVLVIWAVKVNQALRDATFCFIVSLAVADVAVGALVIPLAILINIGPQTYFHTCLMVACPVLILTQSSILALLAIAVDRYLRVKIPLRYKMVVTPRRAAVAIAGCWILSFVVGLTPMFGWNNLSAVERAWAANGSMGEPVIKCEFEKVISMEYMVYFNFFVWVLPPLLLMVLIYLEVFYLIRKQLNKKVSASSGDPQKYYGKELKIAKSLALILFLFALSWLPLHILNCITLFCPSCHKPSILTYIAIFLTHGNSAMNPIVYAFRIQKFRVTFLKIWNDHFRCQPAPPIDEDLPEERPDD
Experimental Readout: IC50 (nM)

(A) C#CCn1c(=O)c2c(nc(C#Cc3ccc(OC)c(OC)c3)n2C)n(CCCO)c1=O [drawing 622]
(B) C#CCn1c(=O)c2c(nc(C#Cc3ccc(OC)c(OC)c3)n2C)n(CC)c1=O [drawing 618]
Prompt: Could you point out whether the larger IC50 belongs to A or to B ? Provide the label of your selected option as the answer.
Completion: B

====

molecular target: Adenosine A2A (Homo sapiens); experiment: Functional assay (luciferase reporter), inhibition of A2A adenosine receptor; details: CHO-DUKX-CRE-A2A-19 cells, 60 nM NECA; read-out: A2A AR IC50
Experimental Readout: IC50 (nM)

> print(dat)
                                   molecule  experimental.readout  recorded.value
1  C#CCn1c(=O)c2c(nc(C#Cc3cccc(C)c3)n2C)n(CCCO)c1=O [drawing 623]                  IC50             400

(P) C#CCn1c(=O)c2c(nc(C#Cc3ccc(OC)c(OC)c3)n2C)n(C)c1=O [drawing 619]
(Q) C#CCn1c(=O)c2c(nc(C#Cc3cccc(OC)c3)n2C)n(CCCO)c1=O [drawing 620]
Prompt: Could you point out whether the larger IC50 belongs to P or to Q ? Provide the label of your selected option as the answer.
Completion: Q
(Q: 900 nM, P: 600 nM)

====

molecular target: Adenosine A2A (Homo sapiens, UniProt P29274); assay: Functional assay (luciferase reporter), inhibition of A2A adenosine receptor; details: CHO-DUKX-CRE-A2A-19 cells, 60 nM NECA; read-out: A2A AR IC50
Sequence (P29274 whole entry): as the sequence (P29274 whole entry) above
Experimental Readout: IC50 (nM)

(P) C#CCn1c(=O)c2c(nc(C#Cc3cccc(OC)c3)n2C)n(C)c1=O [drawing 617]
(Q) C#CCn1c(=O)c2c(nc(C#Cc3ccc(OC)c(OC)c3)n2C)n(CCCO)c1=O [drawing 622]
(R) C#CCn1c(=O)c2c(nc(C#Cc3ccc(OC)c(OC)c3)n2C)n(CC)c1=O [drawing 618]
(S) C#CCn1c(=O)c2c(nc(C#Cc3cccc(OC)c3)n2CC#C)n(C)c1=O [drawing 621]
Prompt: Sort the list above on IC50 in ascending fashion. Dear reader, please state the labels in the requested order.
Completion: R, Q, S, P

====

Reported values: Ki for Rat A2A AR (Rattus norvegicus, UniProt P30543), one per item.
Experimental Readout: Ki (nM)

> print(dat)
                                   compound  experimental.readout  display.unit  recorded.value
1  C#CCn1c(=O)c2c(nc(C#Cc3ccc(OC)c(OC)c3)n2C)n(C(C)C(C)=O)c1=O (stereo not shown) [drawing 524]                    Ki            nM              16

(1) C#CCn1c(=O)c2c(nc(C#Cc3ccc(OC)c(OC)c3)n2C)n(CC(O)CO)c1=O (stereo not shown) [drawing 537]
(2) C#CCn1c(=O)c2c(nc(C#Cc3ccc(OC)c(OC)c3)n2C)n(CC=C)c1=O
Prompt: // select label with min value of measured Ki from [ 1 , 2 ] Provide the label of your selected option as the answer.
Completion: 2

====

biological target: A2A-adenosine receptor human recombinant (Homo sapiens); construct: expressed in transfected cells; test: Radioligand binding assay 1, human recombinant A2A adenosine receptor; settings: no full inhibition curve due to limited water-solubility; read-out: A2A-adenosine receptor human recombinant [3H] MSX-2 Ki, calculated by extrapolation
Experimental Readout: pKi
Give only the number. pKi is defined as minus log10 of concentration in molar units.

Prompt: GET /values?readout=pKi&item= C#CCn1c(=O)c2c(nc(C#Cc3ccccc3)n2C)n(C)c1=O [drawing 552]
Completion: 6.50

====

target: Adenosine A1 (Homo sapiens); experiment: Radioligand binding assay 2, Adenosine A1; set-up: expressed in transfected cells; host or cells: CHO cells; conditions: at 1 μmol/l; human recombinant CHO cells, [3H]CCPA; read-out: A1 AR % inhibition of agonist binding
Experimental Readout: inhibition at 1 µM (%)

> print(dat)
                                   molecule  experimental.readout  recorded.value
1  C#CCn1c(=O)c2c(nc(C#Cc3cccc(OC)c3)n2C)n(CCCO)c1=O [drawing 611]    inhibition at 1 µM              41

(1) C#CCn1c(=O)c2c(nc(C#Cc3ccc(OC)c(OC)c3)n2C)n(CC)c1=O [drawing 608]
(2) C#CCn1c(=O)c2c(nc(C#Cc3ccc(OC)c(OC)c3)n2C)n(C)c1=O [drawing 609]
(3) C#CCn1c(=O)c2c(nc(C#Cc3cccc(C)c3)n2C)n(CCCO)c1=O [drawing 613]
Prompt: Put the entries in order of inhibition at 1 µM, starting with the largest number. Dear reader, please state the labels in the requested order.
Completion: 3, 2, 1
(3: 43%, 2: 10%, 1: 4%)

====

molecular target: Adenosine A3 (Homo sapiens); construct: expressed in transfected cells; host or cells: HEK-293 cells; assay: Radioligand binding assay 2, Adenosine A3; conditions: at 1 μmol/l; human recombinant HEK-293 cells, [125I]AB-MECA; read-out: A3 AR % inhibition of agonist binding
Sequence (P0DMS8 whole entry): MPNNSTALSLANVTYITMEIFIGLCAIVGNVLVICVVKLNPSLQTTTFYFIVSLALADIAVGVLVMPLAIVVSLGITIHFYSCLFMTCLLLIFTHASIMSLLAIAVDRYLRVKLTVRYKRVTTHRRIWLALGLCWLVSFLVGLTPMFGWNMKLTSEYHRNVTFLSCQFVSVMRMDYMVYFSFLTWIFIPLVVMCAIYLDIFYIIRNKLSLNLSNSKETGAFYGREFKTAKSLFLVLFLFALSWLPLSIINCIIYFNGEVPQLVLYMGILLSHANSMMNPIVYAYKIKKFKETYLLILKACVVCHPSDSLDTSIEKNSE
Experimental Readout: inhibition at 1 µM (%)

Solved cases below.
> print(dat)
                                   compound  recorded.value
1  C#CCn1c(=O)c2c(nc(C#Cc3ccc(OC)c(OC)c3)n2C)n(CC)c1=O [drawing 608]              38
2  C#CCn1c(=O)c2c(nc(C#Cc3cccc(OC)c3)n2CC#C)n(C)c1=O [drawing 610]              37

(P) C#CCn1c(=O)c2c(nc(C#Cc3ccc(OC)c(OC)c3)n2C)n(CCCO)c1=O [drawing 612]
(Q) C#CCn1c(=O)c2c(nc(C#Cc3cccc(OC)c3)n2C)n(C)c1=O [drawing 607]
Prompt: // select label with min value of measured inhibition at 1 µM from [ P , Q ] Provide the label of your selected option as the answer.
Completion: Q

Entry source: patent US20080221134A1
